These data points were gathered from ChEMBL document CHEMBL3885861.

organism: Rattus norvegicus; experiment: Open TG-GATES - Regimen: Daily Repeat; format: toxicity, organism-based, Sprague-Dawley; set-up: regimen Daily Repeat, gender Male, age 6 weeks; conditions: in vivo, po, 100 mg/kg, 72 h, tissue Blood, route gavage, dose level Low, time 3 day
READOUT KIND: MCH (pg)

>>> val("CCCCNC(=O)NS(=O)(=O)c1ccc(C)cc1 [TOLBUTAMIDE]")
20.2
>>> val("CC(S)C(=O)NCC(=O)O (centres undefined) [TIOPRONIN]")
19.9
>>> val("O=C(O)c1ccccc1Nc1ccccc1 [FENAMIC ACID]")
20.9
>>> val("CC(=O)[C@@]1(O)CC[C@H]2[C@@H]3C=C(Cl)C4=CC(=O)CC[C@]4(C)[C@H]3CC[C@@]21C [CHLORMADINONE]")
20.1

====

species: Rattus norvegicus; test: Open TG-GATES - Regimen: Single; assay type: toxicity, organism-based, Sprague-Dawley; design: regimen Single, gender Male, age 6 weeks; conditions: in vivo, po, 0 mg/kg, 9 h, tissue Plasma, route gavage, dose level Control
# TP listing for each entry below
READOUT KIND: TP (g/dL)

>>> val("CC(=O)[C@@]1(O)CC[C@H]2[C@@H]3C=C(Cl)C4=CC(=O)CC[C@]4(C)[C@H]3CC[C@@]21C")
5.3
>>> val("CCN(CC)C(=S)SSC(=S)N(CC)CC")
5.4
>>> val("CCCCNC(=O)NS(=O)(=O)c1ccc(C)cc1 [TOLBUTAMIDE]")
5.2
>>> val("NS(=O)(=O)c1cc(C(=O)O)c(NCc2ccco2)cc1Cl [FUROSEMIDE]")
5.6
>>> val("C=C[C@H]1C[N@@]2CC[C@H]1C[C@@H]2[C@@H](O)c1ccnc2ccc(OC)cc12")
5.5
>>> val("O=C(O)c1ccccc1Nc1ccccc1")
5.5
>>> val("COc1ccc([C@@H]2Sc3ccccc3N(CCN(C)C)C(=O)[C@@H]2OC(C)=O)cc1")
5.2
>>> val("CN(CCOc1ccc(CC2SC(=O)NC2=O)cc1)c1ccccn1.O=C(O)/C=C\\C(=O)O (stereo not given) [ROSIGLITAZONE MALEATE]")
5.4
>>> val("CN(C/C=C/C#CC(C)(C)C)Cc1cccc2ccccc12")
5.6
>>> val("CC(S)C(=O)NCC(=O)O (stereo not given)")
5.3

====

organism: Rattus norvegicus; test: Open TG-GATES - Regimen: Single; format: toxicity, organism-based, Sprague-Dawley; set-up: regimen Single, gender Male, age 6 weeks; conditions: in vivo, po, 0 mg/kg, 6 h, tissue Plasma, route gavage, dose level Control
Output condition met for BUN not less than 9 mg/dL; output condition not met otherwise.

>>> cat("NS(=O)(=O)c1cc(C(=O)O)c(NCc2ccco2)cc1Cl [FUROSEMIDE]")
"condition met"
>>> cat("CCO")
"condition met"
>>> cat("CC(=O)[C@@]1(O)CC[C@H]2[C@@H]3C=C(Cl)C4=CC(=O)CC[C@]4(C)[C@H]3CC[C@@]21C")
"condition met"
>>> cat("O=c1ccc2ccccc2o1")
"condition met"
>>> cat("CCCCNC(=O)NS(=O)(=O)c1ccc(C)cc1 [TOLBUTAMIDE]")
"condition not met"

====

Each entry below lists one item and its recorded Mono value.
species on record: Rattus norvegicus; experiment: Open TG-GATES - Regimen: Daily Repeat; format: toxicity, organism-based, Sprague-Dawley; design: regimen Daily Repeat, gender Male, age 6 weeks; settings: in vivo, po, 0 mg/kg, […], tissue Blood, route gavage, dose level Control, time 28 day
READOUT KIND: Mono (%)

>>> val("NS(=O)(=O)c1cc(C(=O)O)c(NCc2ccco2)cc1Cl [FUROSEMIDE]")
2.2
>>> val("CCCCC1C(=O)N(c2ccccc2)N(c2ccccc2)C1=O [PHENYLBUTAZONE]")
4.2
>>> val("CC(=O)[C@@]1(O)CC[C@H]2[C@@H]3C=C(Cl)C4=CC(=O)CC[C@]4(C)[C@H]3CC[C@@]21C [CHLORMADINONE]")
2
>>> val("CN(CCOc1ccc(CC2SC(=O)NC2=O)cc1)c1ccccn1.O=C(O)/C=C\\C(=O)O (stereo not drawn) [ROSIGLITAZONE MALEATE]")
7.6
>>> val("Nc1ccc(Cc2ccc(N)cc2)cc1")
2
>>> val("COc1ccc([C@@H]2Sc3ccccc3N(CCN(C)C)C(=O)[C@@H]2OC(C)=O)cc1 [DILTIAZEM]")
2.4
>>> val("CC(S)C(=O)NCC(=O)O (stereo not drawn) [TIOPRONIN]")
1.8
>>> val("CN(C/C=C/C#CC(C)(C)C)Cc1cccc2ccccc12 [TERBINAFINE]")
2.4
>>> val("CCO [ALCOHOL]")
5.4
>>> val("O=c1ccc2ccccc2o1 [COUMARIN]")
5
>>> val("CCCCNC(=O)NS(=O)(=O)c1ccc(C)cc1 [TOLBUTAMIDE]")
2
>>> val("CCN(CC)C(=S)SSC(=S)N(CC)CC")
2.2
>>> val("O=C(O)c1ccccc1Nc1ccccc1 [FENAMIC ACID]")
1.6
